Assay: Initial polymorphism assessment: solubility of AP1189 freebase in solvent systems (aliquot addition)
Assay type: physicochemical
Conditions: organic solvent or mixture; Acetone; ambient, gently heated to ca. 40 °C if solid remained
quantity-kind: solubility

Q: Given the compound `NC(N)=N/N=C/C=C/c1cccn1-c1ccccc1[N+](=O)[O-]` , what is its reported solubility?
Ans: ≥ 49 mg/mL

* * *

Assay: Initial polymorphism assessment: solubility of AP1189 freebase in solvent systems (aliquot addition)
Assay type: physicochemical
Details: organic solvent or mixture; Dimethylsulfoxide; ambient, gently heated to ca. 40 °C if solid remained
Method: An initial polymorphism assessment was carried out in order to identify any potential alternate forms. The initial polymorphism assessment was carried out as follows: To ca. 7 mg of freebase Pattern 1 from DCM evaporation the appropriate solvent system was added in aliquots of 50 μL and if solid remained the vial was gently heated to ca. 40 °C to aid dissolution. […]
quantity-kind: solubility

Q: Given the molecule `NC(N)=N/N=C/C=C/c1cccn1-c1ccccc1[N+](=O)[O-]` , what is its reported solubility?
Ans: ≥ 136 mg/mL

* * *

Test: Initial polymorphism assessment: solubility of AP1189 freebase in solvent systems (aliquot addition)
Assay type: physicochemical
Settings: organic solvent or mixture; Methylethyl Ketone; ambient, gently heated to ca. 40 °C if solid remained
quantity-kind: solubility

Q: Given the molecule NC(N)=N/N=C/C=C/c1cccn1-c1ccccc1[N+](=O)[O-] [AP1189] , what is its reported solubility?
Ans: ≥ 17 mg/mL

* * *

Experiment: Initial polymorphism assessment: solubility of AP1189 freebase in solvent systems (aliquot addition)
Type: physicochemical
Conditions: organic solvent or mixture; Toluene; ambient, gently heated to ca. 40 °C if solid remained
quantity-kind: solubility

Q: Given the molecule NC(N)=N/N=C/C=C/c1cccn1-c1ccccc1[N+](=O)[O-] [AP1189] , what is its reported solubility?
Ans: < 7000 µg/mL

* * *

Test: Initial polymorphism assessment: solubility of AP1189 freebase in solvent systems (aliquot addition)
Type: physicochemical
Settings: organic solvent or mixture; Methanol; ambient, gently heated to ca. 40 °C if solid remained
quantity-kind: solubility

Q: Given the molecule NC(N)=N/N=C/C=C/c1cccn1-c1ccccc1[N+](=O)[O-] [AP1189] , what is its reported solubility?
Ans: ≥ 142 mg/mL

* * *

Test: Initial polymorphism assessment: solubility of AP1189 freebase in solvent systems (aliquot addition)
Type: physicochemical
Conditions: organic solvent or mixture; Tetrahydrofuran; ambient, gently heated to ca. 40 °C if solid remained
Description: An initial polymorphism assessment was carried out in order to identify any potential alternate forms. The initial polymorphism assessment was carried out as follows: To ca. 7 mg of freebase Pattern 1 from DCM evaporation the appropriate solvent system was added in aliquots of 50 μL and if solid remained the vial was gently heated to ca. 40 °C to aid dissolution. […]
quantity-kind: solubility

Q: Given the compound `NC(N)=N/N=C/C=C/c1cccn1-c1ccccc1[N+](=O)[O-]` , what is its reported solubility?
Ans: ≥ 35 mg/mL

* * *

Test: Thermodynamic solubility in buffer at 24 h (HPLC of supernatant)
Type: physicochemical
Settings: 0.2 m hcl/kcl, pH 1.54, FaSSGF (Fasted State Simulated Gastric Fluid), initial pH 1.60, 24 h pH 1.54, ambient temperature; as free-base
quantity-kind: solubility at 24 h (mM)
Value expressed in mM; do not type the unit.

Q: Given the molecule NC(N)=N/N=C/C=C/c1cccn1-c1ccccc1[N+](=O)[O-] [AP1189 freebase Pattern 1] , what is its reported solubility at 24 h?
Ans: 13.9
